Test: DUSP6 inhibitors restoring Erk phosphorylation by chemical complementation, primary imaging in DUSP6-transfected HeLa (AID 609)
Conditions: HeLa MKP-3 transfected, phospho-Erk imaging KS statistic; measured here: cell density z-score; at 10 µM; cells stimulated with TPA for 15 min
Answer not met if z-score is under 0.3, and met if it is 0.3 or more.

Look over these answered cases.
- compound: "Cn1c(=O)c2c3c(sc2n2c(SCC(=O)c4ccc(Cl)cc4)nnc12)COC(C)(C)C3"
  label_value: "not met"
- compound: "Cc1cc(Cl)ccc1OCC(=O)OC(C)C(=O)N(C)C (stereo unspecified)"
  label_value: "met"

Prompt: z-score >= 0.3 for "c1ccc(CSc2nnc(SCc3ccccn3)s2)nc1" ?
Completion: met

Prompt: Item "CC(C)Oc1ccc(C(=O)CCN2CCCCC2)cc1" with z-score of 0.3 or above?
Completion: met

Prompt: Form field: z-score at least 0.3? Entry: "COc1nc(NS(=O)(=O)c2ccc(C)cc2)nc(C)c1Cl"
Completion: not met

Prompt: # bool: z-score of "O=C(CCCN1CC=C(n2c(=O)[nH]c3ccccc32)CC1)c1ccc(F)cc1" >= 0.3
Completion: not met

Prompt: Decide: is the reported value of z-score for COC(=O)C1=C(C)OC(N)=C(C#N)C1c1ccc(OC)c(OC)c1OC (stereo unspecified) equal to or greater than 0.3?
Completion: met

###

Biological target: Dual specificity protein phosphatase 6 (Homo sapiens) (UniProt Q16828)
Sequence (Q16828 whole entry, looked up): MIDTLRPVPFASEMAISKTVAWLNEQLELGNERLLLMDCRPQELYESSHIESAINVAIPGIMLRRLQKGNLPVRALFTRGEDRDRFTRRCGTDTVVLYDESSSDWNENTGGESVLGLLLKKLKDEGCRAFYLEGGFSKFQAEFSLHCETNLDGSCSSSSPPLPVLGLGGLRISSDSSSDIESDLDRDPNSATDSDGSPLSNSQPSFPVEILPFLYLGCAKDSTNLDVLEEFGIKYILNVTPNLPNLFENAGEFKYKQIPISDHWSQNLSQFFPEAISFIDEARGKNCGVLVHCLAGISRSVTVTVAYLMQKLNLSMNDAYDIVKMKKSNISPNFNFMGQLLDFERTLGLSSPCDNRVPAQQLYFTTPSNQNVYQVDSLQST
Test: DUSP6 inhibitors restoring Erk phosphorylation by chemical complementation, primary imaging in DUSP6-transfected HeLa (AID 609);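 for inhibition: phospho-Erk level distribution per well compared with pooled transfected vehicle control wells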
Conditions: HeLa MKP-3 transfected, phospho-Erk imaging KS statistic; at 10 µM; stronger effect = higher value; cells stimulated with TPA for 15 min
reported_metric: inhibition (%)
Lab book: enter the figure in %, no units written.

The examples below pair each entry with its known result.
- compound: "c1ccc(C2Nc3ccccc3-c3nc4ccccc4n32)nc1 (stereo unspecified)"
  reading_unit: "%"
  readout_value: 12.3
- compound: "COc1cccc(-c2nc(NCC3CCCO3)c3ccccc3n2)c1O (stereo unspecified)"
  reading_unit: "%"
  readout_value: "1.6e-07"
- compound: "Cn1c(OCc2ccco2)nc2c1c(=O)n(Cc1ccc(Cl)c(Cl)c1)c(=O)n2C"
  reading_unit: "%"
  readout_value: 0.671

Per the records, this compound ( CCN(CC)CCN1C(=O)C(=O)/C(=C(/O)c2c(C)[nH]c(C(=O)OC)c2C)C1c1ccco1 (stereo unspecified) ) has inhibition equal to -11.9

Record "Cc1oncc1C(=O)Nc1ccc(C(F)(F)F)cc1" , field inhibition: -10.4

The compound listed as "Cc1ccc(/C=c2\sc3n(c2=O)CN(c2ccc(Br)cc2)CN=3)o1" has a reported inhibition of 22.7

Per the record, "COc1ccccc1Cn1c2nc3ccccc3nc2c2c(=O)n(CC(C)C)cnc21" has inhibition of -8.59

Recorded result, CC(=O)Nc1ccc(S(=O)(=O)Nc2nc3n(n2)C(c2ccccc2)CC(=O)N3)cc1 (stereo unspecified) , inhibition: 21

inhibition in this record for "CSc1sc(C(=O)O)c2c1C(=O)CCC2" : 5.65

Per the record, "Nc1nnc(CSCc2ccc(F)cc2)s1" has inhibition of -13.3

Record summary for "CCCCOc1ccc(C)cc1CN(CCO)CCO" : reported inhibition = 1.9e-07

Just for reference, PubChem BioAssay is where these values come from.
